tested on: Saccharomyces cerevisiae; assay: protein stability index of tFT-peptide fusion (C-terminal peptide) (PSI (0-1 scale)); higher = more stable (slower turnover); settings: genetic background: wild type; temperature: 30 C
# protein stability index per entry
The reply should be a number, written without any unit.

Which measured protein stability index belongs to `RYAEVGSLVSFL` , tested on Saccharomyces cerevisiae?
0.714

Item: `DRRETASGVSVR` Test system: Saccharomyces cerevisiae Read-out: protein stability index Value: ?
0.682

----------
system: Saccharomyces cerevisiae; assay: protein stability index of tFT-peptide fusion (C-terminal peptide) (PSI (0-1 scale)); higher = more stable (slower turnover); conditions: genetic background: das1 deletion; temperature: 37 C
Readout Label: protein stability index

Completed entries (count: 5):
LFLTSFRFLRLF ... 0.597
SLFFCIPIHSVF ... 0.586
RVRNSQVVAVVG ... 0.586
VQLFCLRREMII ... 0.583
QILVSYSFLYFF ... 0.609

So what does the record say about protein stability index for `GLSVLLTCIHFV` ?
0.598

----------
system: Saccharomyces cerevisiae; assay: protein stability index of tFT-peptide fusion (C-terminal peptide) (PSI (0-1 scale)); higher = more stable (slower turnover); details: genetic background: wild type; temperature: 30 C
Each entry below lists one item and its recorded protein stability index value.
// print number alone

Completed entries (count: 2):
ATFSHPELTNIH [SDH6 C-terminal 12 aa] ... 0.716
RVYTEQNVPVVS [YNL194C C-terminal 12 aa] ... 0.684

Data request, read-out protein stability index, for GDKLISPLKKAF [TKL1 C-terminal 12 aa]
0.711

Quick check: protein stability index of KARLTEEQHRHE [CWC21 C-terminal 12 aa] ?
0.697

----------
system: Saccharomyces cerevisiae; assay: protein stability index of tFT-peptide fusion (C-terminal peptide) (PSI (0-1 scale)); higher = more stable (slower turnover); settings: genetic background: wild type; temperature: 30 C
Quick reference for protein stability index among some sequences
The answer should be a number; do not append a unit.

# count of solved cases: 4
PFVAFLPPLSPP ... 0.702
LPPPPPSSSPSP ... 0.701
KIKTIKKHKKKY ... 0.713
GLRLLVLPDSWS ... 0.682

Consider now this further sequence.
Fill in: protein stability index of `PPAPPPLPLPLF` is ___
0.72

----------
test system: Saccharomyces cerevisiae; experiment: protein stability index of tFT-peptide fusion in deletion strain of DOA10 (PSI (0-1 scale)); higher = more stable (slower turnover)
# protein stability index per record follows
// no unit string in output, number only

Example entries and their recorded answers appear below.
CLVSLPLLLFFR ... 0.606
RVTRLDAIYFRIE ... 0.689

Can you look up the measured protein stability index of `RVTRTDAIYFRI` for me?
0.704

// returns reported protein stability index for input `RSLRVLLGLYFR`
0.662

----------
test system: Saccharomyces cerevisiae; assay: protein stability index of tFT-peptide fusion (C-terminal peptide) (PSI (0-1 scale)); higher = more stable (slower turnover); conditions: genetic background: wild type; temperature: 30 C
Recorded protein stability index split into classes lower = under 0.6, middle = from 0.6 up to 0.7, upper = 0.7 and over

VCVFNLTLVGTH ... lower
VGVRCVGVLFGV ... middle
ELSARVCLGSLF ... middle
LSFYLRAVRASL ... lower
SRHRVGLPIQIF ... lower
KGQGPAKTRTRE ... upper
PPRATPPFPLPP ... middle
CGGCPGCDIHMG ... middle
GPGSGWWVSCSL ... upper
IKCVPLVWRLTV ... lower

Bin? `RLITGTKLFNGM`
upper

Band for `CGPGGFGGERVG` ?
upper

Given `VDFVGFGGVEGG` , name the class its protein stability index places it in.
upper

Exam item: assign `PVCIRSLGTALF` to the correct category.
middle

Sort `RVLVEIVYFKVF` into one of the categories.
lower

Which protein stability index category applies to `YVSSCLLWLCFV` here?
lower

# classify by protein stability index band: `PLCCHRSTGCTL`
middle

For this sequence, which bin applies? `SPPPSPPPPLPP`
lower

----------
system: Saccharomyces cerevisiae; assay: protein stability index of tFT-peptide fusion (C-terminal peptide) (PSI (0-1 scale)); higher = more stable (slower turnover); details: genetic background: das1 deletion; temperature: 30 C
Listed here: items and their measured protein stability index.
Keep the answer to the number alone.

LSAGFGIGEFML [YGR079W C-terminal 12 aa] ... 0.72

What value of measured protein stability index is listed for GHNWLIFTRRRL [CBT1 C-terminal 12 aa] ?
0.718

----------
tested on: Saccharomyces cerevisiae; assay: protein stability index of tFT-peptide fusion (C-terminal peptide) (PSI (0-1 scale)); higher = more stable (slower turnover); settings: genetic background: wild type; temperature: 30 C
Entries and their measured protein stability index follow.
// keep it numeric: no unit symbol after the value

Worked set:
SPLLYPPPSTSI ... 0.715
PTPPSPTPLPAT ... 0.679
LFSGPYRYKAYM ... 0.727

Name the reported protein stability index value associated with the sequence `QAGGEYGLKVRW`
0.805

Any idea what its protein stability index is? The sequence is `LLLTGYGLLPST`
0.676

----------
system: Saccharomyces cerevisiae; assay: protein stability index of tFT-peptide fusion (C-terminal peptide) (PSI (0-1 scale)); higher = more stable (slower turnover); conditions: genetic background: das1 deletion; temperature: 37 C
protein stability index overview
Reply with the value as a number alone.

LHASCVYTILLV ... 0.499

What value of protein stability index has been reported for the following sequence? `CLWNFWVRFLLL`
0.509

Recorded protein stability index for `ATSGATILVLIA` , please?
0.647

// query protein stability index value for entry `LCSVVIFCLVWG`
0.343

What value of measured protein stability index is listed for `GQFVISVRFLYE` ?
0.537

Entry under review: `SNFQLLPLFKNI` . Reported protein stability index?
0.799

# protein stability index lookup, item `SYRFFLFLAVFV`
0.574

Can you share its protein stability index? I mean this sequence: `GFVVYLLLSYLF`
0.482

Item `LIARYTFLFCLC` has what recorded protein stability index?
0.628

Record request: protein stability index value, item `CLFSVLFPLFFR`
0.158

----------
system: Saccharomyces cerevisiae; assay: protein stability index of tFT-peptide fusion (C-terminal peptide) (PSI (0-1 scale)); higher = more stable (slower turnover); settings: genetic background: wild type; temperature: 30 C
Readout Label: protein stability index
Give only the figure.

RVTEYHTKYKIV ... 0.153
YTHIRGVLFGVR ... 0.704
WGWSLARRFLSV ... 0.555
SRVTVLGGWRRG ... 0.701
GLGGPLSLVYLF ... 0.629

Name the reported protein stability index value associated with the sequence `PSPPPAPPPHSP`
0.665

Which value of protein stability index has been reported for `LPRLSPSPRPSR` in the records?
0.719

----------
system: Saccharomyces cerevisiae; assay: protein stability index of tFT-peptide fusion (C-terminal peptide) (PSI (0-1 scale)); higher = more stable (slower turnover); conditions: genetic background: wild type; temperature: 30 C
Catalogue of sequences with associated protein stability index
Number only, please.

Would you please look over these solved cases?
RLLFFVFLSSRF ... 0.407
HPSRWPSPRAIL ... 0.684
RVTLWDGSRSRI ... 0.711

Please look at the following sequence next.
Given the entry `MLTYVVRSLVGY` , report its measured protein stability index.
0.422

----------
tested on: Saccharomyces cerevisiae; assay: protein stability index of tFT-peptide fusion (C-terminal peptide) (PSI (0-1 scale)); higher = more stable (slower turnover); conditions: genetic background: das1 deletion; temperature: 30 C
Below is a list of entries, each paired with its recorded protein stability index value.
Would you mind answering with just the numeric figure?

Example entries and their recorded answers appear below.
RTRPPTAVAHIA [DUG3 C-terminal 12 aa] ... 0.694
ALSKVGIYTIAN [PAU10 C-terminal 12 aa] ... 0.702

Which protein stability index is reported for this sequence? KTSNTKVSSRKA [ELO3 C-terminal 12 aa]
0.696

// query protein stability index value for entry VDIRSFRQDMDL [YJR056C C-terminal 12 aa]
0.703

----------
tested on: Saccharomyces cerevisiae; assay: protein stability index of tFT-peptide fusion (C-terminal peptide) (PSI (0-1 scale)); higher = more stable (slower turnover); settings: genetic background: wild type; temperature: 30 C
Readout Label: protein stability index
Please reply with the number alone, leaving off any unit.

ANGRHPQPSITL [CDC33 C-terminal 12 aa] ... 0.709
TPKYVESDEDDQ [TOF2 C-terminal 12 aa] ... 0.72

Any idea what protein stability index was measured for DDFDMMEATQLS [MUD2 C-terminal 12 aa] ?
0.696

Give its protein stability index value. Item: GNLRDTLIETYS [TIF6 C-terminal 12 aa]
0.679

Requested read-out: protein stability index. Entry: SILRIDDIAFSR [CCT4 C-terminal 12 aa]
0.71
